Measured values drawn from paper PMC11992111 for this set.

Target: AZG2 (Arabidopsis thaliana, UniProt Q84MA8)
Sequence (Q84MA8 1-530): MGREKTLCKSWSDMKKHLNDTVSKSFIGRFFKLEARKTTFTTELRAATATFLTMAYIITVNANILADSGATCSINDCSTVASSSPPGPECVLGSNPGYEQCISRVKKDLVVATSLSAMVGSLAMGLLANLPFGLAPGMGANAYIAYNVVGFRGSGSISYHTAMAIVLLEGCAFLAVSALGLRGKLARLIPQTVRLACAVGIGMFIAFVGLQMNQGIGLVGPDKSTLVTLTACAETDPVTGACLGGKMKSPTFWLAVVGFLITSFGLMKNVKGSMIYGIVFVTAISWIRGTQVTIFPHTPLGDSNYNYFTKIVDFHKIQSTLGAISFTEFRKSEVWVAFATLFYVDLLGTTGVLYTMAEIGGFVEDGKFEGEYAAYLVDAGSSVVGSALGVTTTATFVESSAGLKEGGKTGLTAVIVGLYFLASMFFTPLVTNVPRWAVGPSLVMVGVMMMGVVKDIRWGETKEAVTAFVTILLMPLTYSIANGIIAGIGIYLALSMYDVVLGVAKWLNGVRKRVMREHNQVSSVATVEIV
Test: ITC at pH […]
Assay type: binding
pKd: −log10 of the molar value.
Quantity: pKd

In [3]: df
Out[3]:
     chemical_smiles                     target_or_test_system  assay_value
0  Nc1ncnc2nc[nH]c12  AZG2 (Arabidopsis thaliana, UniProt Q84MA8)         6.11
